Experiment: Pharmacokinetic study in SD rats (intravenous injection and intragastric administration)
Format: in vivo, Sprague Dawley (SD) rats
Details: male, Sprague-Dawley, rat, plasma, iv, Injection (1 mg/kg), tail vein, read-out: residence time MRT
REPORTED METRIC: MRT
Numeric answer plus unit only.

Problem: Field request: MRT | item: COc1ccc2c(c1OCc1ccccc1)CC(C(=O)NS(=O)(=O)N(C)C)N(c1nc3ccccc3o1)C2 (centres unmarked) [Example 9]
Solution: 1.3 h

Problem: Entry COc1ccc(COc2c(OC)ccc3c2C[C@@H](C(=O)O)N(c2nc4ccc(F)cc4o2)C3)nc1 [Example 36] : reported MRT = ?
Solution: 2.3 h

Problem: # lookup: MRT of COc1ccc2c(c1OCc1ccccc1)C[C@@H](C(=O)O)N(c1nc3ccc(F)cc3o1)C2 [Example 14]
Solution: 1.9 h

Problem: So what's the measured MRT for this one? COc1ccc2c(c1OCc1ccccc1)C[C@@H](C(=O)O)N(c1nc3ccc(C#N)cc3o1)C2 [Example 15]
Solution: 2 h

Problem: Which value of MRT has been reported for COc1ccc(COc2c(OC)ccc3c2C[C@@H](C(=O)O)N(c2nc4ccc(F)cc4o2)C3)cn1 [Example 39] in the records?
Solution: 1.9 h

Problem: Entry COc1ccc(COc2c(OC)ccc3c2C[C@@H](C(=O)O)N(c2nc4ccc(F)cc4o2)C3)cc1 [Example 30] has what MRT?
Solution: 1.2 h

Problem: Look up MRT for this molecule: COc1ccc2c(c1OCc1ccccc1)C[C@@H](C(=O)O)N(C(=O)C(c1ccccc1)c1ccccc1)C2 [olodanrigan, reference compound]
Solution: 0.92 h

Problem: Value lookup for MRT; key = COc1ccc2c(c1OCc1ccccc1)C[C@@H](C(=O)O)N(c1nc3ccncc3o1)C2 [Example 22]
Solution: 1.2 h
